Header: pIC50 / Autotaxin (Homo sapiens) / multiple publications
Please express pIC50 as -log10 of the molar concentration.

Ask | Please state recorded pIC50 (tested on Autotaxin (Homo sapiens)) of C[C@@H](OCCc1c[nH]nn1)C(=O)N1Cc2cnc(NC3Cc4ccccc4C3)nc2C1
Reply | 8.57

Ask | Now give it for O=C(COc1ccc(OC(F)(F)F)cc1Cl)N1C[C@@H]2CN(C(=O)c3ccc4[nH]nnc4c3)C[C@H]2C1 too.
Reply | 7.92

Ask | Now give it for O=C(c1ccc2[nH]nnc2c1)N1C[C@@H]2[C@H](C1)[C@H]1CN(C(=O)c3cc4ccccc4[nH]3)C[C@@H]21 too.
Reply | 5.83

###

Header: IC50 / Autotaxin (Homo sapiens, UniProt Q13822) / multiple publications

Ask | # IC50 lookup, item O=C(c1ccc2[nH]nnc2c1)N1CC2(CCN(S(=O)(=O)CCc3cccc(Cl)c3)CC2)C1
Reply | 821 nM

Ask | Now give it for Cc1ccc2cc(C(=O)N3C[C@@H]4[C@H]5CN(C(=O)c6ccc7[nH]nnc7c6)C[C@H]5[C@@H]4C3)[nH]c2c1 too.
Reply | 243 nM

Ask | Now give it for O=C(c1cnc(OC2CCC2)c(C(F)(F)F)c1)N1C[C@@H]2CN(C(=O)c3ccc4[nH]nnc4c3)C[C@H]2C1 too.
Reply | 7 nM

Ask | Now give it for CCCCCC1CN(CC(=O)N2CCCC[C@@H]2C)C(=O)c2cc(-c3ccc(Cl)cc3)nn21 (stereo partly shown) too.
Reply | 10 to 100 nM

Ask | Now give it for CCc1nc2sc(N3CC[C@H](N(C)CC(=O)N4CC(C#N)C4)C3)nn2c1N(C)c1nc(-c2ccc(F)cc2)c(C#N)s1 too.
Reply | 0.01 to 100 nM

Ask | Now give it for COc1cc(OC(F)(F)F)ccc1COC(=O)N1CCc2cc(C(=O)N3CCc4[nH]nnc4C3)nn2CC1 too.
Reply | 21 nM

Ask | Now give it for O=C1NC(=O)N2Cc3c(c4ccc(Cl)cc4n3Cc3ccc(F)cc3)C[C@@H]12 too.
Reply | > 1000 nM

###

Header: IC50 / Autotaxin (Homo sapiens, UniProt Q13822) / multiple publications

Ask | # IC50 lookup, item CC(C)[C@@H](NC(=O)c1cc(C(F)(F)F)ccc1F)C(=O)N1CCC2(CC1)C(=O)N(C)C(=O)N2Cc1ccc2oc(=O)n(C)c2c1
Reply | < 500 nM

Ask | Now give it for COc1cccc(-c2cc(C#N)c(Cl)cc2OCc2n[nH]c(=O)n2C)c1F too.
Reply | 1 nM

Ask | Now give it for CCCCCC1CN(Cc2cccc(C(=O)N3CCC(O)CC3)c2)C(=O)c2cc(-c3ccc(Cl)cc3)nn21 (stereo not shown) too.
Reply | 10 to 100 nM

Ask | Now give it for CCc1nc2sc(N3CCC(N(C)C(=O)N(C)C)C3)nn2c1N(C)c1nc(-c2ccc(F)cc2)c(C#N)s1 (stereo not shown) too.
Reply | 100 to 500 nM

Ask | Now give it for C[C@H]1CN(Cc2ccc(C#N)cc2)C(=O)c2cc(-c3ccc(Cl)cc3NC(=O)C3CC3)nn21 too.
Reply | 10 to 100 nM

Ask | Now give it for CCCCC1CN(CC(=O)N(CC)CCC#N)C(=O)c2cc(-c3ccc(Cl)cc3)nn21 (stereo not shown) too.
Reply | 10 to 100 nM

Ask | Now give it for O=C(c1ccc(-c2ccc(Cl)cc2)cc1)N1C[C@@H]2CN(C(=O)[C@@H]3CCc4[nH]nnc4C3)C[C@H]2C1 too.
Reply | 8 nM

###

Header: IC50 / Autotaxin (Homo sapiens, UniProt Q13822) / multiple publications

Ask | # IC50 lookup, item CC(C)[C@@H](NC(=O)c1cc(C(F)(F)F)ccc1F)C(=O)N1CCC2(CC1)C(=O)N(C)C(=O)N2CC1CC1
Reply | ≥ 1000 nM

Ask | Now give it for Cc1cc(OCc2n[nH]c(=O)n2C)c(-c2ccc(Cl)cc2)cc1Cl too.
Reply | 6 nM

Ask | Now give it for Cc1cc(C(C)(C)C)c(OCc2ccc(=O)[nH]n2)cc1C#N too.
Reply | 40 nM

Ask | Now give it for CC1(C)CN(CC(=O)N2CCC(C(=O)O)CC2)C(=O)c2cc(-c3ccc(Cl)cc3)nn21 too.
Reply | ≥ 1000 nM

Ask | Now give it for CC(C)OCC1CN(Cc2ccc(C#N)cc2)C(=O)c2cc(-c3ccc(Cl)cc3)nn21 (centres unmarked) too.
Reply | 100 to 1000 nM

Ask | Now give it for CCc1ccc(F)c(C(=O)N[C@@H](C(=O)N2CCC(Oc3ccc(S(C)(=O)=O)cc3)(C(=O)NC)CC2)C(C)C)c1 too.
Reply | 500 to 5000 nM

Ask | Now give it for CC(C)Oc1ccc(F)c(-c2cc(C#N)c(Cl)cc2OCc2n[nH]c(=O)n2C)c1 too.
Reply | 4 nM

Ask | Now give it for CN(Cc1ccc2c(C(F)(F)F)c(O[C@H]3CC[C@@H](C(F)(F)F)CC3)ccc2c1)[C@H]1CC[C@@H](C(=O)O)CC1 too.
Reply | ≤ 500 nM

Ask | Now give it for CC1CN(Cc2ccc3c(C(F)(F)F)c(O[C@H]4CC[C@@H](C(F)(F)F)CC4)ccc3c2)CCC1C(=O)O (relative stereo) too.
Reply | ≤ 500 nM

Ask | Now give it for COc1ccc(Cn2c3c(c4ccccc42)C[C@H]2C(=O)N(CC4(C(=O)O)CC4)C(=O)N2C3)cn1 too.
Reply | < 500 nM

Ask | Now give it for CCCCCC1CN(CC(=O)OCC2CCCCN2)C(=O)c2cc(-c3ccc(Cl)cc3)nn21 (centres unmarked) too.
Reply | ≥ 1000 nM

Ask | Now give it for CO[C@@]12CN(C(=O)c3cc(OCC4CCOCC4)nc(C4CC4)c3)C[C@H]1CN(C(=O)c1ccc(S(N)(=O)=O)cn1)C2 (relative stereo) too.
Reply | 10 nM

Ask | Now give it for CC(c1ccc2c(C(F)(F)F)c(O[C@H]3CC[C@@H](C)CC3)ccc2c1)N1CCC[C@H](CC(=O)O)C1 (some centres unmarked) too.
Reply | ≤ 100 nM

Ask | Now give it for O=C(c1cnc(NCc2cc(OC(F)(F)F)cc(C3CC3)c2)nc1)N1CCC12CN(C1CC1)C2 too.
Reply | < 100 nM

###

Header: IC50 / Autotaxin (Homo sapiens, UniProt Q13822) / multiple publications

Ask | # IC50 lookup, item O=C(OCc1ccc(F)c(F)c1)N1CCc2cc(C(=O)N3CCc4[nH]nnc4C3)nn2CC1
Reply | 41 nM

Ask | Now give it for COCC(=O)N1CCc2c(COc3cc(C)c(Cl)cc3C(C)(C)C)n[nH]c2C1 too.
Reply | 15 nM

Ask | Now give it for O=C(/C=C/c1ccc(OC(F)(F)F)cc1)N1CC[C@@H]2CN(C(=O)[C@H]3CCc4[nH]nnc4C3)C[C@@H]2CC1 too.
Reply | 83 nM

Ask | Now give it for CCCCC1CN(Cc2ccc(C#N)cc2)C(=O)c2cc(-c3ccc(OC)cc3)nn21 (stereo not drawn) too.
Reply | 100 to 1000 nM

Ask | Now give it for O=C(c1cc(OCC2CCOCC2)cc(C2CC2)c1)N1C[C@@H]2CN(C(=O)[C@@H]3CCc4[nH]nnc4C3)C[C@H]2C1 too.
Reply | 6 nM

Ask | Now give it for O=C(OCc1ccc(OC(F)(F)F)cc1F)N1CCc2nc(C(=O)N3CCc4[nH]nnc4C3)nn2CC1 too.
Reply | 13 nM

Ask | Now give it for CCCCC1CN(CC(=O)N2CCC(OCCO)CC2)C(=O)c2cc(-c3ccc(Cl)cc3)nn21 (stereo not drawn) too.
Reply | 100 to 1000 nM

Ask | Now give it for CC(C)(C)c1cc(CNc2ncc(C(=O)N3CCC34COC4)cn2)cc(OC(F)(F)F)c1 too.
Reply | < 100 nM

Ask | Now give it for C[C@H]1CN(Cc2ccc(C#N)cc2)C(=O)c2cc(-c3ccc(Cl)cc3C=O)nn21 too.
Reply | 100 to 1000 nM

Ask | Now give it for CC1(O)CC2(CCN2C(=O)c2cnc(N[C@@H]3Cc4ccc(Cl)cc4C3)nc2)C1 (stereo partly drawn) too.
Reply | < 100 nM

Ask | Now give it for Cc1cc(OCc2n[nH]c(=O)n2C)c(-c2cc(C(=O)N(C)C)ccc2C)cc1Cl too.
Reply | 17 nM

Ask | Now give it for O=C(COc1ccc(OC(F)(F)F)cc1)N1C[C@@H]2[C@H](C1)[C@H]1CN(C(=O)c3ccc4[nH]nnc4c3)C[C@@H]21 too.
Reply | 36 nM

Ask | Now give it for O=C(CCc1ccc(OC(F)(F)F)cc1)N1CCC2(CC1)CN(C(=O)c1ccc3[nH]nnc3c1)C2 too.
Reply | 12 nM

Ask | Now give it for O=C(c1ccc2[nH]nnc2c1)N1C[C@@H]2CN(S(=O)(=O)CCc3cccc(Cl)c3)C[C@@H]2C1 too.
Reply | 9260 nM

Ask | Now give it for Cc1cc(OCc2n[nH]c(=O)n2C)c(-c2cc(C(=O)N3CCN(C)C(=O)C3)ccc2F)cc1Cl too.
Reply | 13 nM
